TARGET_OR_SYSTEM: T1, human Jagged 2-Fc (R&D Systems Cat #1726-JG-050) (human, UniProt Q9Y219 27-1080, limits assumed)
T1 construct: Bought reagent; also called hJag2; h Jagged 2; not shown: Fc part
T1 sequence (Q9Y219 27-1080 limits assumed): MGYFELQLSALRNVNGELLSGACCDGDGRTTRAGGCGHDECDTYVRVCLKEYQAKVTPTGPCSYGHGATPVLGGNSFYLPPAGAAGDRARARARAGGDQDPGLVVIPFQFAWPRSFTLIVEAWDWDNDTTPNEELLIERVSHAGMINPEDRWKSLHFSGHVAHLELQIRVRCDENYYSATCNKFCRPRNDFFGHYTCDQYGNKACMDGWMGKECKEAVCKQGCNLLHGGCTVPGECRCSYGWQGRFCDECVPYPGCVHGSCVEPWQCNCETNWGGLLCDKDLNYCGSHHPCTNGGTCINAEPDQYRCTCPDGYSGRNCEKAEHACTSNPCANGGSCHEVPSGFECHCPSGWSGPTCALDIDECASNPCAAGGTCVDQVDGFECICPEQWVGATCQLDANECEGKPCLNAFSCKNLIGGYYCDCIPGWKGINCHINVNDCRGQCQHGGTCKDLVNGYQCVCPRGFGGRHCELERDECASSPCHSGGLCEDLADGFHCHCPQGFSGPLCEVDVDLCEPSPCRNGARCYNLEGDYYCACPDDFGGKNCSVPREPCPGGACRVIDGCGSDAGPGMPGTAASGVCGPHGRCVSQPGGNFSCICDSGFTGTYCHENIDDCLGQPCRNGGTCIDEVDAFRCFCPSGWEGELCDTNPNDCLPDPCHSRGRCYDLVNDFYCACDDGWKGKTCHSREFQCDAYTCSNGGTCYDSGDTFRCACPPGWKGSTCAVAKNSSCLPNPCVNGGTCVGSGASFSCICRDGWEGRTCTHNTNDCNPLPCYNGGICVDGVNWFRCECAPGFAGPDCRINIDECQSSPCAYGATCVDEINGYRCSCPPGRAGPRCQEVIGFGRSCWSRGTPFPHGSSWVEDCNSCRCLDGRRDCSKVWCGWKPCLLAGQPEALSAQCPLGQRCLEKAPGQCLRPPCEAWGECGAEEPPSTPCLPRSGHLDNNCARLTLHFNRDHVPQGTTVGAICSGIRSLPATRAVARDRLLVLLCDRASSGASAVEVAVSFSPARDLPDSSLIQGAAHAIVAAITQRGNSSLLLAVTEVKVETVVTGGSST
TEST_SUMMARY: BLI (Octet), Jagged-Fc on anti-human Fc tips, Fab in solution
READOUT_TYPE: koff (s⁻¹)
Give the value in s⁻¹ but do not write s⁻¹ after it.

Field koff (entry 4B2 Fab (Fab, V domains shown, C-terminally His-tagged Fab from the periplasm of E. coli) VH: EVQLLESGGGLVQPGGSLRLSCAASGFTFSSYAMSWVRQAPGKGLEWVSSIEQMGWQTYYADSVKGRFTISRDNSKNTLYLQMNSLRAEDTAVYYCAKDIGGRSAFDYWGQGTLVTVSS VL: DIQMTQSPSSLSASVGDRVTITCRASQSISSYLNWYQQKPGKAPKLLIYAASSLQSGVPSRFSGSGSGTDFTLTISSLQPEDFATYYCQQTLDAPPQFGQGTKVEIKR ) reads 0.0065
